- Test summary: qHTS drug screen for cell cycle checkpoint inhibitors in PARPi-resistant BRCA-mutant ovarian cancer cell lines. (AID 1963452)
- Recorded conditions: PEO1/OlaR viability, CellTiter-Glo luminescence, 96 h; measured here: PEO4 Z-AUC; stronger effect = lower value
- From the text: Women's Malignancies Branch, Center for Cancer Research (CCR), National Cancer Institute (NCI), National Institutes of Health (NIH), Bethesda, MD Poly (ADP-ribose) polymerase inhibitors (PARPis) have changed the treatment paradigm in breast cancer gene (BRCA) - mutant high-grade serous ovarian carcinoma (HGSC). […] 6; Detection; Luminescence, PHERAstar (BMG Labtech) plate reader. […] 6. Luminescence readings were taken using PHERAstar (BMG Labtech). […]
Mark yes (1) for Z-AUC under 0.4, no (0) if at or over.

These recorded examples may help you get a feel for the data.
- Compound: "CC(C)(C)c1cc(C(=O)O)c(NC(=O)Nc2ccc3[nH]ncc3c2)s1"
  Category: "yes (1)"
- Compound: "CN1[C@@H]2CCC[C@@H]1CC(NC(=O)c1nn(C)c3ccccc13)C2 (some centres not stated)"
  Category: "yes (1)"
- Compound: "C[C@]12CC[C@@H]3c4ccc(O)cc4C[C@@H](CCCCCCCCCS(=O)CCCC(F)(F)C(F)(F)F)[C@H]3[C@H]1CC[C@H]2O (some centres not stated)"
  Category: "yes (1)"
- Compound: "O=C(Nc1ccccc1-c1cn2c(CN3CCNCC3)csc2n1)c1cnc2ccccc2n1"
  Category: "yes (1)"
- Compound: "O=C(NCc1ccncc1)C12C[C@H]3C[C@@H](C1)CC(c1ccc(Cl)cc1)(C3)C2"
  Category: "no (0)"

-- ask Find out if reported Z-AUC for CC(=O)Nc1ccc([C@H](C)C(=O)Nc2ncc(C(C)C)s2)cc1 is less than 0.4
-- reply yes (1)

-- ask Find out if reported Z-AUC for COc1cc2ncnc(Nc3ccc(F)c(Cl)c3)c2cc1OCCCN1CCOCC1 is less than 0.4
-- reply no (0)

-- ask Find out if reported Z-AUC for O=C1c2ccccc2-[n+]2ccc3c([nH]c4ccccc43)c21 is less than 0.4
-- reply yes (1)

-- ask Find out if reported Z-AUC for NC(=O)[C@@H](CCC(F)(F)F)N(Cc1ccc(-c2ncon2)cc1F)S(=O)(=O)c1ccc(Cl)cc1 is less than 0.4
-- reply no (0)

-- ask Find out if reported Z-AUC for Cc1ccc(C(C)(O)c2nc3ccccc3s2)c(C)c1 (configuration not stated) is less than 0.4
-- reply yes (1)

-- ask Find out if reported Z-AUC for CCS(=O)(=O)N1CC(CC#N)(n2cc(-c3ncnc4[nH]ccc34)cn2)C1 is less than 0.4
-- reply no (0)

-- ask Find out if reported Z-AUC for O=c1cc(-c2ccccc2)oc2cc(O)c(O)c(O)c12 is less than 0.4
-- reply no (0)
